- Test system: HCT-116 Colon
- Method description: tumor cell growth inhibitory activity, HCT-116 colon
- Format: cell-based, human
- Test conditions: Table 6; HCT-116 colon tumor cells
The following compounds are listed with their measured HCT-116 Colon IC50 values.

Notebook: C=C1C[C@@H]2C[C@@H]3CCO[C@@H](O3)c3cccc(c3)/C=C/C[C@H]3O[C@@H](/C(C)=C/I)[C@H](C)[C@@H](OC(=O)/C=C/C[C@@H](C1)O2)[C@H]3C [Compound (E, E)-24] , HCT-116 Colon IC50 read as >6.25 µg/mL

Notebook: C=C1C[C@@H]2C[C@@H]3C[C@@H](O)C[C@@H](O3)c3coc(n3)/C=C/C[C@H]3O[C@@H](/C(C)=C/C#N)[C@H](C)[C@@H](OC(=O)/C=C\C[C@@H](C1)O2)[C@H]3C [HEMI-PHORBOXAZOLE A, Hemi-Phorboxazole A] , HCT-116 Colon IC50 read as >6.2 µg/mL

API: the following record is the query input.
Notebook: C=C1C[C@@H]2C[C@@H]3CCO[C@@H](O3)c3cccc(c3)/C=C\C[C@H]3O[C@@H](/C(C)=C/C#N)[C@H](C)[C@@H](OC(=O)/C=C/C[C@@H](C1)O2)[C@H]3C [Compound (E, Z)-6] , HCT-116 Colon IC50 read as >6.25 µg/mL
